Give measured Kp for each item. Keep answers brief.
# Procedure text: Ratio of drug level in brain to plasma in Sprague-Dawley rat at 3 mg/kg, po administered as single dose
# Assay type: ADME, organism-based
# Set-up: dose 3 mg/kg, route oral
# Setup conditions: read-out: BPR
Answer with a number only.

Lab note: measured Kp of COc1cc(N2CCN(C3CCN(c4ccc(F)c5c(OC)cc(C(F)(F)F)nc45)CC3)CC2)c2ncccc2c1 was 0.2

Lab note: measured Kp of COc1cc(N2CCN(C3CCN(c4cccc5cccnc45)CC3)CC2)c2ncccc2c1 was 2.8

Lab note: measured Kp of COc1cc(N2CCN(C3CCN(c4ccc(F)c5cccnc45)CC3)CC2)c2ncccc2c1 was 1.3
